Molecular target: T1, CRBN, Q96SW2;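 also: pooled lentiviral library of zinc finger degron-EGFP fusions in mCherry-positive Jurkat cells, FACS-sorted after compound exposure, with degron abundance counted by next-generation sequencing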
T1 chain: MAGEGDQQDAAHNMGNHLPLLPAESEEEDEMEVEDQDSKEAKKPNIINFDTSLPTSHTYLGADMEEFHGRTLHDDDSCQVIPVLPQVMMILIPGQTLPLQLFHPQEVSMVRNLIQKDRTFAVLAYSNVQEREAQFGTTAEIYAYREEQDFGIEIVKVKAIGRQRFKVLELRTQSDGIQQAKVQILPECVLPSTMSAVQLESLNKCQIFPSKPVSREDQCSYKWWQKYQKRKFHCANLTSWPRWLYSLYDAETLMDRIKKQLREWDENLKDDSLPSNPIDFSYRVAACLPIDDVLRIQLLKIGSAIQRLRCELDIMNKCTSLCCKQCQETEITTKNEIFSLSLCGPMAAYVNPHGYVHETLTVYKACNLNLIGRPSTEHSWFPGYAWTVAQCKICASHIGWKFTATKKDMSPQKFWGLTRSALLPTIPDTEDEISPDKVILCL
Experiment: log2 fold change of degron read counts, EGFP-low vs EGFP+ sorted cells (limma voom), compound-induced degradation; higher = more compound-induced degradation of the degron-EGFP fusion; degrons are variants of IKZF1/3 zinc finger 2; compound dose not given here
Conditions: Jurkat; 18 h; compound: compound 22 (5-morpholino-thalidomide)
In all, about 8,300 sequences were measured (“log2 fold change of degron read counts, EGFP-low vs EGFP+ sorted cells (limma voom), compound-induced degradation”: median about -1.1, highest 2% from about 3.2 on). Only a selection was taken, and the highest values are over-represented in it overall.
For each entry below, report its log2 fold change of degron read counts value.
Returns: the value as a bare number; no unit string appended.

INPUT: Which log2 fold change of degron read counts value belongs to FHCEICGAWFTQKGNLLRHIKL [46F_47H_49E_50I_52G_53A_54W_55F_67L_, Q9UKT9] ?
OUTPUT: -1.57

INPUT: Which log2 fold change of degron read counts value belongs to LECPICGFHCTQKGNLLRHIKL [46L_47E_49P_50I_52G_53F_54H_55C_67L_, Q9UKT9] ?
OUTPUT: -0.655

INPUT: Which log2 fold change of degron read counts value belongs to FSCDVCGAEFTQKGNLLRHIKL [46F_47S_49D_50V_52G_53A_54E_55F_67L_, Q9UKT9] ?
OUTPUT: -1.36

INPUT: Which log2 fold change of degron read counts value belongs to LNCPICGFHCTQKGNLLRHIKL [46L_47N_49P_50I_52G_53F_54H_55C_67L_, Q9UKT9] ?
OUTPUT: 0.56

INPUT: Which log2 fold change of degron read counts value belongs to FNCNQCGHKFTQKGNLLRHIKL [46F_47N_49N_50Q_52G_53H_54K_55F_67L_, Q9UKT9] ?
OUTPUT: -2.21

INPUT: Which log2 fold change of degron read counts value belongs to FKCNQCGAVFTQKGNLLRHIKL [46F_47K_49N_50Q_52G_53A_54V_55F_67L_, Q9UKT9] ?
OUTPUT: -2.71

INPUT: Which log2 fold change of degron read counts value belongs to LTCEICGFICTQKGNLLRHIKL [46L_47T_49E_50I_52G_53F_54I_55C_67L_, Q9UKT9] ?
OUTPUT: -0.661
